Molecular target: Replicase polyprotein 1ab (Severe acute respiratory syndrome coronavirus)
Give measured Ki for each item. Keep answers brief.
Field: numeric (nM). Do not append units.

# query: Ki of entry CCOC(=O)/C=C/[C@H](C[C@@H]1CCNC1=O)NC(=O)[C@H](CC(C)C)NC(=O)[C@@H](NC(=O)OCc1ccccc1)C(C)OC(C)(C)C (some centres not stated) 58

Next compound up: "C[C@H](OC(C)(C)C)[C@H](NC(=O)OCc1ccccc1)C(=O)N[C@@H](CC1CCCCC1)C(=O)N[C@H](C=O)C[C@@H]1CCNC1=O" 54

###

Biological target: Genome polyprotein (Coxsackievirus B3 (strain Nancy), UniProt P03313)
Sequence (P03313 1541-1723 limits assumed): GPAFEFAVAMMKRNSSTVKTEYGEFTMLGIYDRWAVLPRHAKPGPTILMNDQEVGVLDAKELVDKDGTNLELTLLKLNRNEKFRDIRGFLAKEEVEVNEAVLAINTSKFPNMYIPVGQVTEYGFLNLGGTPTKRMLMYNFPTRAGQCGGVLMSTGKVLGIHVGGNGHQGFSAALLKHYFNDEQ
Test: Enzyme Inhibition Assay
Details: pH 6.5; 25 °C
Give measured pKi for each item. Keep answers brief.
Expect pKi as a plain number equal to -log10 of the molar concentration.

# query: pKi of entry "C[C@H](OC(C)(C)C)[C@H](NC(=O)OCc1ccccc1)C(=O)N[C@@H](CC1CCCCC1)C(=O)N[C@H](C=O)C[C@@H]1CCNC1=O" 5.60

Next compound up: "CC(=O)CC=C(C[C@@H]1CCNC1=O)NC(=O)[C@H](CC(C)C)NC(=O)[C@H](CNC(=O)C(C)(C)C)NC(=O)OCc1ccccc1" 6.10

Next compound up: CCOC(=O)/C=C/[C@H](C[C@@H]1CCNC1=O)NC(=O)[C@H](CC(C)C)NC(=O)[C@@H](NC(=O)OCc1ccccc1)C(C)OC(C)(C)C (some centres undefined) 5.82

Next compound up: CC(C)C[C@H](NC(=O)[C@@H](NC(=O)OCc1ccccc1)C(C)OC(C)(C)C)C(=O)NC(=CCC(=O)C1CC1)C[C@@H]1CCNC1=O (some centres undefined) 6.40
